Target: ADAM17 (Homo sapiens, UniProt P78536)
Sequence (P78536 215-474 limits assumed): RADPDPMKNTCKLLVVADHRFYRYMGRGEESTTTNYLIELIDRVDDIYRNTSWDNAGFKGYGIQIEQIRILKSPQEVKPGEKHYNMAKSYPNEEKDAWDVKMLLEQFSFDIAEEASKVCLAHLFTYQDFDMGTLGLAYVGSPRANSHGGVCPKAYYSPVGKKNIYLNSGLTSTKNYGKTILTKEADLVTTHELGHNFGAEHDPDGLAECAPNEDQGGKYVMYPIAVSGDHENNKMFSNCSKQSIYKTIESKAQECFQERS
measure-name: pIC50
pIC50 here: minus log base 10 of the concentration, concentration in moles per litre.

Given CC(C)C[C@H](CC(=O)NO)C(=O)N[C@@H](Cc1ccc2ccccc2c1)C(=O)N[C@@H](C)C(=O)NCCN [TAPI-1] , state its recorded pIC50. 6.89
